molecular target: human S1P1 (Homo sapiens, UniProt P21453); assay: [^35S]-GTPγS binding; format: biochemical; settings: intrinsic activity relative to maximal S1P response (100%), mean ± SEM
Sequence (P21453 whole entry): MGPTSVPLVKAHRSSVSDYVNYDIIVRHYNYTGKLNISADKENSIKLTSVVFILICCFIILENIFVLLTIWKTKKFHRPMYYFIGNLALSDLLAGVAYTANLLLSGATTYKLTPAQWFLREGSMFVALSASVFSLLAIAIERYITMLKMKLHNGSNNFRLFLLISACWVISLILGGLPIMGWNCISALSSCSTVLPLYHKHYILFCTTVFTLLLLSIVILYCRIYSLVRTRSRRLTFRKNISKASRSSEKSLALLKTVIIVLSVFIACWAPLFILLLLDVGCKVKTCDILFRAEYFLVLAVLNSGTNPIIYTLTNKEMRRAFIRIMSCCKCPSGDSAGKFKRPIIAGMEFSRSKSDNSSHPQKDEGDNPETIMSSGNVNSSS
quantity-kind: Human S1P1 IA (%)
Report the figure in % without appending any unit label.

So what does the record say about Human S1P1 IA for CCCCCCCCc1ccc(CCC(N)(CO)COP(=O)(O)O)cc1 (stereo not shown) [FTY720-p, FTY720-phosphate] ?
84.9

May I ask what Human S1P1 IA has been recorded for O=C(O)C[C@H]1CCc2c1[nH]c1ccc(OCc3ccc(C4CCCC4)c(C(F)(F)F)c3)cc21 [Etrasimod] ?
86.6

Please look up its Human S1P1 IA: CCC/N=C1\S/C(=C\c2ccc(OC[C@H](O)CO)c(Cl)c2)C(=O)N1c1ccccc1C [Ponesimod]
85.8

Query: Human S1P1 IA; subject: CCCCCCCOc1ccc(CCC(N)(CO)COP(=O)(O)O)cc1C(F)(F)F (stereo not shown) [Amiselimod-p]
84.1

What value of Human S1P1 IA has been recorded for this entry: CC(C)Oc1ccc(-c2nc(-c3cccc4c3CC[C@@H]4NCCO)no2)cc1C#N [Ozanimod]
85

Return reported Human S1P1 IA; argument: NC(CO)(CCc1ccc(Sc2cccc(OCc3ccccc3)c2)cc1Cl)COP(=O)(O)O (stereo not shown) [KRP-203-p, KRP-203-phosphate]
85.7

For the compound shown here, CCc1cc(/C(C)=N/OCc2ccc(C3CCCCC3)c(C(F)(F)F)c2)ccc1CN1CC(C(=O)O)C1 [Siponimod] , give the reported Human S1P1 IA.
82.1

====

molecular target: human S1P5 (Homo sapiens); test: [^35S]-GTPγS binding; format: biochemical; details: intrinsic activity relative to maximal S1P response (100%), mean ± SEM
Sequence (Q9H228 whole entry): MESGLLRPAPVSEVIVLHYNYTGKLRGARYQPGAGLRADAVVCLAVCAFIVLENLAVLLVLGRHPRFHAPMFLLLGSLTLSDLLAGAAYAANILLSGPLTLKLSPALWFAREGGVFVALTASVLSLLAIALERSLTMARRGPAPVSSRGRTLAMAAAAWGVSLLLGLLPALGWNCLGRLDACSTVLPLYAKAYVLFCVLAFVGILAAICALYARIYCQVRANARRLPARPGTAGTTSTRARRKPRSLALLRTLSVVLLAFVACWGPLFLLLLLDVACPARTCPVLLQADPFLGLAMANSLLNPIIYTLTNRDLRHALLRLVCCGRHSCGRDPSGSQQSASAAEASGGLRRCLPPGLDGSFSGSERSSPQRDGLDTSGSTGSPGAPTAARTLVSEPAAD
Assign class by Human S1P5 IA: not lower than 80% means true; lower than 80% means false.

For this molecule, is measured Human S1P5 IA 80% or higher? CCCCCCCOc1ccc(CCC(N)(CO)COP(=O)(O)O)cc1C(F)(F)F (stereo not drawn)
false

Would you say NC(CO)(CCc1ccc(Sc2cccc(OCc3ccccc3)c2)cc1Cl)COP(=O)(O)O (stereo not drawn) [KRP-203-p, KRP-203-phosphate] shows Human S1P5 IA at minimum 80%?
false

Hi team, for CC(C)Oc1ccc(-c2nc(-c3cccc4c3CC[C@@H]4NCCO)no2)cc1C#N , is the recorded Human S1P5 IA at or above 80%?
true

Form field: Human S1P5 IA at least 80%? Entry: CCc1cc(/C(C)=N/OCc2ccc(C3CCCCC3)c(C(F)(F)F)c2)ccc1CN1CC(C(=O)O)C1
true

Check the entry CCC/N=C1\S/C(=C\c2ccc(OC[C@H](O)CO)c(Cl)c2)C(=O)N1c1ccccc1C : does Human S1P5 IA equal or exceed 80%?
true

====

Exercise: for every item that follows, state its recorded EC50.
molecular target: human S1P5 (Homo sapiens); assay: [^35S]-GTPγS binding; conditions: [^35S]-GTPγS binding, CHO cell membranes, mean ± SEM
Give the value in nM but do not write nM after it.

Form entry - test system: human S1P5 (Homo sapiens); read-out: EC50; molecule: CC(C)Oc1ccc(-c2nc(-c3cccc4c3CC[C@@H]4NCCO)no2)cc1C#N [Ozanimod]
5.84

Quick check: EC50 on human S1P5 (Homo sapiens), item CCCCCCCOc1ccc(CCC(N)(CO)COP(=O)(O)O)cc1C(F)(F)F (stereo not drawn) [Amiselimod-p] ?
0.58

Give EC50 (human S1P5 (Homo sapiens)) of the following molecule: NC(CO)(CCc1ccc(Sc2cccc(OCc3ccccc3)c2)cc1Cl)COP(=O)(O)O (stereo not drawn) [KRP-203-p, KRP-203-phosphate]
0.69

Provide the documented EC50 with human S1P5 (Homo sapiens) as the system for CCC/N=C1\S/C(=C\c2ccc(OC[C@H](O)CO)c(Cl)c2)C(=O)N1c1ccccc1C [Ponesimod]
43.2

Record lookup: for human S1P5 (Homo sapiens), what EC50 belongs to O=C(O)C[C@H]1CCc2c1[nH]c1ccc(OCc3ccc(C4CCCC4)c(C(F)(F)F)c3)cc21 [Etrasimod] ?
58.9

Test system human S1P5 (Homo sapiens); read-out EC50; what value for CCc1cc(/C(C)=N/OCc2ccc(C3CCCCC3)c(C(F)(F)F)c2)ccc1CN1CC(C(=O)O)C1 [Siponimod] ?
0.3

====

Target: human S1P2 (Homo sapiens)
Construct: membrane preparation
Sequence (O95136 whole entry): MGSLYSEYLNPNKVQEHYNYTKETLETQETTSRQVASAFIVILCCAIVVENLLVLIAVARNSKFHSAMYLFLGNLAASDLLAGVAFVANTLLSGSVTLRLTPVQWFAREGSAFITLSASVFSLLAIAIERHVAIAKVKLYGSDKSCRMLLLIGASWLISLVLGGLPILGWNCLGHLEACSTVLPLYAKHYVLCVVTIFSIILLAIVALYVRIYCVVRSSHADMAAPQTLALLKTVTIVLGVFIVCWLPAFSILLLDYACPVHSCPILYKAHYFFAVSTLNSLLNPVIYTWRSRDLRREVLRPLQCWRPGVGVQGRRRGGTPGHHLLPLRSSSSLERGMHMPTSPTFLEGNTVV
Experiment: [^35S]-GTPγS binding
Conditions: [^35S]-GTPγS binding, CHO cell membranes, mean ± SEM
Source text: Stable clones of Chinese hamster ovary (CHO) cells expressing human S1P1 and S1P5 were generated by transfecting the cells with the N-terminal hemagglutinin-tagged receptor in pcDNA3.1 expression vectors followed by antibiotic selection for S1P1 and S1P5 and picking of clones using cyclic adenosine monophosphate assay, fluorescence-activated flow cytometry using the associated tag as well as functional [^35S]-GTPγS binding assays. […]
quantity-kind: EC50

API: value(readout=EC50, system=human S1P2 (Homo sapiens)) for record CCC/N=C1\S/C(=C\c2ccc(OC[C@H](O)CO)c(Cl)c2)C(=O)N1c1ccccc1C
> 10 µM

Form field: EC50 recorded for CC(C)Oc1ccc(-c2nc(-c3cccc4c3CC[C@@H]4NCCO)no2)cc1C#N with human S1P2 (Homo sapiens) (enter value)
> 10 µM

Please tell me: EC50 of O=C(O)C[C@H]1CCc2c1[nH]c1ccc(OCc3ccc(C4CCCC4)c(C(F)(F)F)c3)cc21 , system human S1P2 (Homo sapiens)?
> 10 µM

Lookup: EC50 / human S1P2 (Homo sapiens) / CCCCCCCOc1ccc(CCC(N)(CO)COP(=O)(O)O)cc1C(F)(F)F (stereo not drawn)
> 4 µM

Field: EC50 (human S1P2 (Homo sapiens)). Entry: CCc1cc(/C(C)=N/OCc2ccc(C3CCCCC3)c(C(F)(F)F)c2)ccc1CN1CC(C(=O)O)C1
> 10 µM

What measured EC50 is associated with NC(CO)(CCc1ccc(Sc2cccc(OCc3ccccc3)c2)cc1Cl)COP(=O)(O)O (stereo not drawn) [KRP-203-p, KRP-203-phosphate] on human S1P2 (Homo sapiens)?
> 10 µM

====

molecular target: human S1P1 (Homo sapiens); test: [^35S]-GTPγS binding; type: biochemical; conditions: [^35S]-GTPγS binding, CHO cell membranes, mean ± SEM
quantity-kind: EC50 (nM)
Please give a number only; it is taken to be in nM.

Endpoint output: EC50 of CCC/N=C1\S/C(=C\c2ccc(OC[C@H](O)CO)c(Cl)c2)C(=O)N1c1ccccc1C . Value?
3.42

Given the entry O=C(O)C[C@H]1CCc2c1[nH]c1ccc(OCc3ccc(C4CCCC4)c(C(F)(F)F)c3)cc21 , report its measured EC50.
5.48

Fill blank: measured EC50 of the compound NC(CO)(CCc1ccc(Sc2cccc(OCc3ccccc3)c2)cc1Cl)COP(=O)(O)O (centres unmarked) [KRP-203-p, KRP-203-phosphate] is ____.
0.26

What measured EC50 goes with CCCCCCCOc1ccc(CCC(N)(CO)COP(=O)(O)O)cc1C(F)(F)F (centres unmarked) ?
0.15

Any idea what EC50 was measured for CCc1cc(/C(C)=N/OCc2ccc(C3CCCCC3)c(C(F)(F)F)c2)ccc1CN1CC(C(=O)O)C1 ?
0.46

====

target: human S1P4 (Homo sapiens, UniProt O95977); construct: membrane preparation; assay: [^35S]-GTPγS binding; conditions: [^35S]-GTPγS binding, CHO cell membranes, mean ± SEM
Sequence (O95977 whole entry): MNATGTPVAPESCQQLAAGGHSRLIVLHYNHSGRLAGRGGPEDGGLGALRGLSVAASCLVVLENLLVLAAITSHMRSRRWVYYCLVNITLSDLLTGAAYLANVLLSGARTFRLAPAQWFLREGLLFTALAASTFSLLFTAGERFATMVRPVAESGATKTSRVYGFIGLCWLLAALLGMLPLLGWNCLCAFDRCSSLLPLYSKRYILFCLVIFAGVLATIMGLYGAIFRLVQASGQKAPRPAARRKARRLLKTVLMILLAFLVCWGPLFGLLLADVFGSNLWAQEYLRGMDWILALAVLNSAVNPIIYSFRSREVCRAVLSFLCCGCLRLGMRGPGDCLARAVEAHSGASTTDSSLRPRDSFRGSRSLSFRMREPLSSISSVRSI
# if measured EC50 < 400 nM: Yes  # else: No

EC50 under 400 nM? Item: NC(CO)(CCc1ccc(Sc2cccc(OCc3ccccc3)c2)cc1Cl)COP(=O)(O)O (stereo not shown) [KRP-203-p, KRP-203-phosphate]
Yes

Would you kindly verify if EC50 of CCC/N=C1\S/C(=C\c2ccc(OC[C@H](O)CO)c(Cl)c2)C(=O)N1c1ccccc1C is strictly less than 400 nM?
No

Problem: For the molecule CCCCCCCOc1ccc(CCC(N)(CO)COP(=O)(O)O)cc1C(F)(F)F (stereo not shown) , is EC50 under 400 nM?
Yes

Find out if reported EC50 for CCCCCCCCc1ccc(CCC(N)(CO)COP(=O)(O)O)cc1 (stereo not shown) [FTY720-p, FTY720-phosphate] is less than 400 nM
Yes

In the record for O=C(O)C[C@H]1CCc2c1[nH]c1ccc(OCc3ccc(C4CCCC4)c(C(F)(F)F)c3)cc21 , is EC50 less than 400 nM?
No

Does the reported EC50 of CC(C)Oc1ccc(-c2nc(-c3cccc4c3CC[C@@H]4NCCO)no2)cc1C#N stay below 400 nM?
No

hey, is EC50 for CCc1cc(/C(C)=N/OCc2ccc(C3CCCCC3)c(C(F)(F)F)c2)ccc1CN1CC(C(=O)O)C1 lower than 400 nM or not?
Yes

====

Give measured Human S1P3 IA for each item. Keep answers brief.
target: human S1P3 (Homo sapiens, UniProt Q99500); construct: membrane preparation; assay: [^35S]-GTPγS binding; assay type: biochemical; conditions: intrinsic activity relative to maximal S1P response (100%), mean ± SEM
Sequence (Q99500 whole entry): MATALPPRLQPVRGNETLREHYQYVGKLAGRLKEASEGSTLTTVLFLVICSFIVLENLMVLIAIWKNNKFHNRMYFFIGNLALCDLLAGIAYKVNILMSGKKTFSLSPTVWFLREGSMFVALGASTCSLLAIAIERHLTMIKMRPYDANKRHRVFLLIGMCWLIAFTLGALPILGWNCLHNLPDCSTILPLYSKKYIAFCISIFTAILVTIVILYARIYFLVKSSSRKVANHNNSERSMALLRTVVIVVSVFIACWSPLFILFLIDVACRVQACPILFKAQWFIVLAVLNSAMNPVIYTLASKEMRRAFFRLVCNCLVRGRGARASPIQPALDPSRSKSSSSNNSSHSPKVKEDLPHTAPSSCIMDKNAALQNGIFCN
Response body: numeric value in %, unit text excluded.

Field request: Human S1P3 IA | item: CCCCCCCOc1ccc(CCC(N)(CO)COP(=O)(O)O)cc1C(F)(F)F (stereo not drawn)
29.1

Suppose we examine the molecule NC(CO)(CCc1ccc(Sc2cccc(OCc3ccccc3)c2)cc1Cl)COP(=O)(O)O (stereo not drawn) [KRP-203-p, KRP-203-phosphate] ; what Human S1P3 IA value has been reported?
25.7

If you can, please state the reported Human S1P3 IA value of O=C(O)C[C@H]1CCc2c1[nH]c1ccc(OCc3ccc(C4CCCC4)c(C(F)(F)F)c3)cc21 .
81.2
